# Test system: Calu-3
# MEASUREMENT_NOTES: cell viability relative to DMSO; higher = less toxic
# CONDITION_DETAILS: 72 h; 10 nM
MEASURED_ENDPOINT: cell viability (%)
Give the value, in units of %, as a plain number.

Exam item: What does the data say about its cell viability? Entry: CCC(=O)N1CCOc2c(cc(-c3ccc(OC)c(OC)c3)cc2OC[C@H]2CCCN(C)C2)C1 [I-CBP-112]
Marked response: 95

Exam item: Input CC(C)(C)c1cc(C(C)(C)C)c2c(c1)C(O)(C(F)(F)F)C(=O)O2 (racemic) [rac-BHFF]
Marked response: 93.4

Exam item: Param item: CC[C@H]1OC(=O)[C@H](C)[C@@H](O[C@H]2C[C@@](C)(OC)[C@@H](O)[C@H](C)O2)[C@H](C)[C@@H](O[C@@H]2O[C@H](C)C[C@H](N(C)C)[C@H]2O)[C@](C)(OC)C[C@@H](C)C(=O)[C@H](C)[C@@H](O)[C@]1(C)O [clarithromycin]
Marked response: 107

Exam item: Please do the same for C=CCN(C)CCCCCCOc1ccc(C(=O)c2ccc(Br)cc2)c(F)c1 [Ro-48-8071] as well.
Marked response: 95.7

Exam item: Entry CCCCN(CCCC)CCCOC(=O)c1ccc(N)cc1 [butacaine] please
Marked response: 95.3
